Method summary: A CellTox Green Cytotoxicity Assay to monitor cytotoxicity in HepG2 cells - 24 hour (AID 1224878); further: nearly all actives have a fitted effect of over 45% in size
Study conditions: CellTox Green fluorescence; series mostly up to 76.8 µM
Inconclusive results are not listed. Calls of active or inactive are those of the source. The call rests on the fitted dose curve; in most records, active means well fitted activation curve with a large enough effect in the repeat runs; inconclusive means weak or mixed curves; inactive means flat fitted curve, though single readings scatter.
The categories you may choose from are active, inactive

Here are 4 compounds together with their reported answers.
- Compound: "Cc1cccc(N(C)C(=S)Oc2ccc3c(c2)C2CCC3C2)c1 (stereo unspecified)"
  Assigned label: "inactive"
- Compound: "CC1=NC(C)OC1C (stereo unspecified)"
  Assigned label: "inactive"
- Compound: "CN(C)[C@@H]1C(=O)C(C(N)=O)=C(O)[C@@]2(O)C(=O)C3=C(O)c4c(O)cccc4C[C@H]3C[C@@H]12"
  Assigned label: "inactive"
- Compound: "CC(C)(C)NC(=O)[C@@H]1C[C@@H]2CCCC[C@@H]2CN1C[C@@H](O)[C@H](Cc1ccccc1)NC(=O)[C@H](CC(N)=O)NC(=O)c1ccc2ccccc2n1"
  Assigned label: "active"

Please indicate how the test categorized CCN(CC)CCNC(=O)c1c(C)[nH]c(/C=C2\C(=O)Nc3ccc(F)cc32)c1C .
active

Next up: O=C(Nc1cccc(C(F)(F)F)c1)c1cc(Br)cc(Br)c1O
active

Next up: CCCCCCCCCCCCCCCC(=O)OC[C@H](O)[C@H]1OC(=O)C(O)=C1O
inactive

Next up: Cc1cccc(CN2CCN(C(c3ccccc3)c3ccc(Cl)cc3)CC2)c1 (stereo unspecified)
inactive

Next up: Cc1cc(O)c(C(C)(C)C)cc1C(C)(C)C
active

Next up: CC[C@H](c1ccc(O)cc1)[C@@H](CC)c1ccc(O)cc1
active

Next up: CCCCCCCCCCCCCCCS(=O)(=O)Oc1ccccc1
inactive

Next up: CC(C)c1ccc2c(c1)CC[C@H]1[C@](C)(CN)CCC[C@]21C
active

Next up: Cc1ccc(-n2nc(C(C)(C)C)cc2NC(=O)Nc2ccc(OCCN3CCOCC3)c3ccccc23)cc1
inactive

Next up: OCCN1CCN(CC/C=C2/c3ccccc3Sc3ccc(C(F)(F)F)cc32)CC1
active

Next up: C[C@@H](NCCCc1cccc(C(F)(F)F)c1)c1cccc2ccccc12
active

Next up: C=C(C)C(=O)OCC(O)COc1ccc(C(C)(C)c2ccc(OCC(O)COC(=O)C(=C)C)cc2)cc1 (stereo unspecified)
inactive

Next up: CCC1OCC(COc2ccc(Oc3ccccc3)cc2)O1 (stereo unspecified)
inactive

Next up: C=C(C)C(=O)OCC[N+](C)(C)C
inactive

Next up: Cc1[nH]cnc1C[C@H]1CCc2c(C)c3ccccc3n2C1=O
active

Next up: CCCCCCCCNC(C)C(O)c1ccc(SC(C)C)cc1 (stereo unspecified)
active

Next up: CC(C)(C)c1ccc(C(=O)CCCN2CCC(OC(c3ccccc3)c3ccccc3)CC2)cc1
active

Next up: CN1CCC(Nc2ncc3ncnc(Nc4ccc(F)c(Cl)c4)c3n2)CC1
active

Next up: Clc1ccc2n[nH]nc2c1
inactive

Next up: CCCCCOC(=O)CCCC
inactive

Next up: Cn1cc(C(=O)[C@@H]2CCc3nc[nH]c3C2)c2ccccc21
inactive

Next up: NC(=O)NS(=O)(=O)c1ccc(N)cc1
inactive

Next up: Nc1cc(C(F)(F)F)ccc1S
inactive
